- Tested on: HLA-B35
- assayProcedure: REVEAL binding assay
- conditionDetails: score as percentage of the signal generated by the positive control peptide
Where no end group is shown, it is not given here. [ ]: non-standard residue; d: D form. Cit = NC(=O)NCCC[C@H](N)C(=O)O
Consider the cut-off 4%. If the recorded REVEAL binding score, HLA-type B35 is strictly smaller, the label is true; if not, the label is false.

Reference set (2 entries):
substance	experimentalTarget	classLabel
LMGYIPLVG	HLA-B35	true
GP[Cit]IGVRAT	HLA-B35	true

Q: State whether 4% exceeds REVEAL binding score, HLA-type B35 recorded for "GITFSIYLI" .
Ans: false

Q: State whether 4% exceeds REVEAL binding score, HLA-type B35 recorded for "GYIPLVGAP" .
Ans: false

Q: State whether 4% exceeds REVEAL binding score, HLA-type B35 recorded for "RVIETLTSG" .
Ans: true

----------
- Test system: HLA-B35
- assayProcedure: REVEAL binding assay
- conditionDetails: score as percentage of the signal generated by the positive control peptide
Where no end group is shown, it is not given here. [ ]: non-standard residue; d: D form. Nle = CCCC[C@H](N)C(=O)O
Would you mind telling me the reported REVEAL binding score, HLA-type B35 of each entry?
Numbers only, in %.

Answered cases to consult:
substance	REVEAL binding score, HLA-type B35, %
LGKVIDTLT	5.11
DLMGYIPLV	2.49
VIDTLTCGF	3.26

Please supply REVEAL binding score, HLA-type B35 for each of the following items, keeping them in order.
1. IGGNYLIPR
2. L[Nle]GYIPLIG
3. GPRLGVRAT

Ans:
1. 2.54
2. 2.85
3. 1.83

----------
- Tested on: HLA-A24
- assayProcedure: REVEAL binding assay
- conditionDetails: score as percentage of the signal generated by the positive control peptide
Consider the cut-off 0.9%. If the recorded REVEAL binding score, HLA-type A24 is strictly smaller, the label is T; if not, the label is F.

Reference set (2 entries):
substance	experimentalTarget	classLabel
RNLGKVIDT	HLA-A24	F
PRLGVRATR	HLA-A24	F

Q: State whether 0.9% exceeds REVEAL binding score, HLA-type A24 recorded for "IRVIAHGLR" .
Ans: T

Q: State whether 0.9% exceeds REVEAL binding score, HLA-type A24 recorded for "NIPGSTYSL" .
Ans: F

Q: State whether 0.9% exceeds REVEAL binding score, HLA-type A24 recorded for "GGQIVGGVY" .
Ans: F

Q: State whether 0.9% exceeds REVEAL binding score, HLA-type A24 recorded for "ITFSIYLIV" .
Ans: T

Q: State whether 0.9% exceeds REVEAL binding score, HLA-type A24 recorded for "IPLVGAPLG" .
Ans: T

----------
Would you mind telling me the reported REVEAL binding score, HLA-type A11 of each entry?
- experimentalTarget: HLA-A11 (Homo sapiens, UniProt P04439, A114D/F33Y/S129P)
- assayProcedure: REVEAL binding assay
- conditionDetails: score as percentage of the signal generated by the positive control peptide
Where no end group is shown, it is not given here. [ ]: non-standard residue; d: D form. Cit = NC(=O)NCCC[C@H](N)C(=O)O; Nle = CCCC[C@H](N)C(=O)O

substance	observedValue
YIPLVGAPL	3.54%
L[Nle]GYIPLIG	2.48%
ITFSIYLIV	5.31%
GGQIVGGVY	2.71%
NLPGCSFSI	3.47%

Please supply REVEAL binding score, HLA-type A11 for each of the following items, keeping them in order.
1. GNLPGCSFS
2. ATGNLPGCS
3. IIGGNYLIP
4. YLPAVGAPI

Ans:
1: 2.41%; 2: 2.54%; 3: 2.81%; 4: 3.07%

Please supply REVEAL binding score, HLA-type A11 for each of the following items, keeping them in order.
1. [Cit]IGVRAT[Cit]R
2. LGRVIETLT
3. NLGKVIDTL
4. QIIGGNYLI

Ans:
1. 8.27%
2. 20.27%
3. 12.81%
4. 4.06%
